Known DPPH radical scavenging activity (IC50) of a selection of compounds
- measurementNotes: DPPH radical scavenging activity (electron donating ability)
- measurementParameters: isolated compounds
Report only the number, with the unit µg/mL understood.

compound	quantitativeResult
O=c1c(O)c(-c2ccc(O)c(O)c2)oc2cc(O)cc(O)c12	2.89
O=C1c2c(O)cc(O)cc2O[C@H](c2ccc(O)c(O)c2)[C@H]1O [Dihydroquercetin, dihydroquercetin]	4.49

// moving on: another record for DPPH radical scavenging activity (IC50)
Value of DPPH radical scavenging activity (IC50) reported for the compound COc1c(-c2ccc(O)c(O)c2)oc2cc(O)cc(O)c2c1=O is 3.76
